Where do the numbers come from? From ChEMBL document CHEMBL3120099.

- ASSAY_PROTOCOL: Cmax in Wistar rat at 10 mg/kg, po
- Type: ADME, organism-based
- Set-up: dose 10 mg/kg, route oral
- SETUP_CONDITIONS: in vivo
MEASURED_ENDPOINT: Cmax

MOLECULE	RESULT
CCc1cc(-c2noc(-c3sc(CC)c4c3CCC(C)(C)C4)n2)cc(C)c1OC[C@@H](O)CNC(=O)CO	1450 ng/mL
CCc1cc(CCC(=O)c2sc(CC)c3c2CCC(C)(C)C3)cc(C)c1OCC(O)CNC(=O)CO (racemic)	141 ng/mL

###

As shown below, each of these molecules has a reported Tmax value.
- ASSAY_PROTOCOL: Tmax in Wistar rat plasma at 10 mg/kg, po
- Assay type: ADME, organism-based
- Design: dose 10 mg/kg, route oral
MEASURED_ENDPOINT: Tmax (h)

SMILES_STRING	MEASUREMENT_UNIT	RESULT_NUMBER
CCc1cc(-c2noc(-c3sc(CC)c4c3CCC(C)(C)C4)n2)cc(C)c1OC[C@@H](O)CNC(=O)CO	h	6
CCc1cc(-c2noc(-c3sc(CC)c4c3CCC(C)(C)C4)n2)cc(C)c1OCCNCCC(=O)O	h	8
CCc1cc(-c2noc(-c3sc(CC)c4c3CCC(C)(C)C4)n2)cc(C)c1OC[C@@H](O)CO	h	6.4
